observed_property: melting point

Fill blank: measured melting point of the compound `O=C(c1ccc(F)cc1)C1CCN(CCn2c(=O)[nH]c3ncccc3c2=O)CC1` is ____.
60 °C

`Cc1nc(C(O)(c2nc(C)c(C)s2)C(F)(F)F)sc1C` , same question.
122 to 124 °C

Also check COc1nccc2c1C(c1ccccc1C(F)(F)F)C(C(=O)OCCN(C)C)=C(C)N2 (stereo not given)
137 to 138 °C

Lookup `Cn1c(-c2ccccc2Nc2cccc(C(F)(F)F)c2)n[nH]c1=O`
178 to 180 °C

// repeat for `CN1CCN(c2cccc(-c3ccc(C#N)c(=O)[nH]3)c2)CC1` and report
264 to 267 °C

* * *

Catalogue of compounds with associated melting point

Here's what some known entries look like.
{"compound": "CCOC(=O)c1cn(C2CC2)c2c(C#N)c(Cl)c(F)cc2c1=O", "melting point": "162 to 165 °C"}
{"compound": "CNC(=O)C1CC2(CCN(CCCC(=O)c3ccc(F)cc3)C2)c2ccc(Cl)cc21 (stereo unspecified)", "melting point": "151 to 153 °C"}
{"compound": "Cn1c(CO)nc2ccc(Sc3ccccc3)nc21", "melting point": "119 to 120 °C"}

Data request, read-out melting point, for `COc1cc(OC)nc(NC(=O)NS(=O)(=O)c2c(C(F)F)nsc2OCC(F)(F)F)n1`
200 to 202 °C

Another: O=C(O)CC(CSc1nc2ccccc2[nH]1)C(=O)O (stereo unspecified)
165 to 168 °C

// same read-out, input: CC1CC2C3CC(F)C4=CC(=O)C=CC4(C)C3C(=O)CC2(C)C1C(=O)COC(=O)C(C)(C)C (stereo unspecified)
226 to 227 °C

Same again, this time with `Cc1cc(Cl)c(C(=O)O)c(Cl)c1`
139 to 145 °C

Let us now turn to `CN1CCC(c2c[nH]c3ccc(NC(=O)c4ccc(Cl)cc4Cl)nc23)CC1`
151 to 152 °C

* * *

Catalogue of compounds with associated melting point

{"compound": "Nc1nc2cc[nH]c2c(=O)[nH]1", "observed_value": "> 300 °C"}
{"compound": "COc1ccccc1-c1cc(NC(=O)[C@H]2CCCNC2)ncn1", "observed_value": "163 to 165 °C"}
{"compound": "O=C(O)C1=Cc2cc(F)cc(F)c2OC1C(F)(F)F (configuration not stated)", "observed_value": "207 to 211 °C"}
{"compound": "CCCCOc1ccc(-c2nc3n(c2-c2ccc(OCCCC)cc2)CCS3)cc1", "observed_value": "149 to 151 °C"}
{"compound": "O=C(Nc1ccccc1)OCCCCCCCCCCC=C(F)F", "observed_value": "54 to 56 °C"}

Requested field: melting point. Item: `CC(=O)N1CCCC(=O)c2c(Cl)cccc2CCC1=O`
115 to 116 °C

Another compound to check: CC(C)(C)OC(=O)N1CCc2ccc(C(=O)NC3COCCn4c3nc(-c3ccncn3)cc4=O)cc2C1 (racemic)
252 to 254 °C

Try the compound C=C1C(=O)N(C)CCC1(O)c1cccc(OC)c1 (configuration not stated)
127 to 128 °C

Try this compound too: `O=C(O)CCCCCCCCCCSc1nc(-c2ccccc2)c(-c2ccccc2)[nH]1`
193 to 195 °C

Further, for `CCC=Cc1ncc(/C=C(\Cc2cccs2)c2nnn[nH]2)n1Cc1ccccc1Cl` ?
182 to 184 °C

* * *

Reported melting point values are given for each entry in this list.

Consider the following illustrative entries.
{"compound": "COc1ccccc1Cc1ccc(C(=O)C2=C(O)C(=O)N(C(C)C)C2)o1", "melting point": "123 to 124 °C"}
{"compound": "N#Cc1ccc(NC(=O)CN2CCC(Cc3ccccc3)CC2)cc1", "melting point": "120 to 124 °C"}
{"compound": "Cc1ccccc1C(CCC(=O)O)Oc1cc(OCc2ccsc2)ccc1-c1nc(C(=O)O)co1 (racemic)", "melting point": "178 to 179 °C"}

Which value of melting point has been reported for `O=C(O)c1cc(C(F)(F)F)cc(F)c1F` in the records?
94 to 96 °C

Okay, and Cc1cccc2c1nc(COc1ccc(Cl)cc1)n2CCC(C)C(=O)NCCCN1CCCCC1 (stereo not given) ?
102 to 103 °C

* * *

Overview of reported melting point across a group of compounds:

{"compound": "CCOC(OCC)c1cc(NC(c2ccccc2)(c2ccccc2)c2ccccc2)c(F)c(C2CCCO2)n1 (centres undefined)", "melting point": "149 to 150 °C"}
{"compound": "O=C(Nc1ccccc1)c1ccc(F)c([N+](=O)[O-])c1", "melting point": "155 to 157 °C"}
{"compound": "CN1CC(CCn2ccnc2)Oc2ncccc2C1=O (centres undefined)", "melting point": "150 to 152 °C"}
{"compound": "C[C@@H]1COC(=O)N1c1nc(-c2ccc(Br)cc2)cs1", "melting point": "189 to 190 °C"}
{"compound": "COc1cc(C)c(C(=O)c2c(Cl)cncc2C(F)(F)F)c(OC)c1OC", "melting point": "75 to 77 °C"}

Here is another compound to look at.
May I ask what melting point has been recorded for `O=C(NCCO)c1cccc(-c2cccc3cc(Cc4ccc(OCC(F)(F)F)nc4)sc23)c1` ?
123 to 124 °C

* * *

observed_property: melting point

Example results:
{"compound": "Oc1c(Br)cc(-c2c3ccccc3c(C(F)(F)F)c3sc4ccccc4c23)cc1Br", "observed_value": "223 to 225 °C"}
{"compound": "CC1(C)Oc2ccc(S(=O)(=O)C(F)(F)C(F)(F)C(F)(F)F)cc2[C@@H](N2Cc3ccccc3C2=O)[C@@H]1O (relative stereo)", "observed_value": "241 to 249 °C"}
{"compound": "CC(=O)NCC1CN(c2cc(F)c(-c3cccnc3)c(F)c2)C(=O)O1 (centres undefined)", "observed_value": "218 to 219 °C"}
{"compound": "CC1(C)OC[C@H](COn2cnc3c(Cl)nc(NC=O)nc32)O1", "observed_value": "145 to 148 °C"}
{"compound": "Cc1cccc(-c2cc(=O)c(C)c(-c3ccccc3)n2-c2ccccc2F)c1", "observed_value": "211 to 214 °C"}
{"compound": "CC1CCN(C2=NCC(=O)N(C)c3ccccc32)CC1", "observed_value": "106 to 108 °C"}

Using the record for `O=C(O)c1ccc(-c2nc(-c3ccc(Br)cc3)cs2)cc1` , report its melting point.
> 300 °C

Next entry: `CCCCCc1cc2c(nc(O)n2CC2CCOCC2)c(N)n1`
> 250 °C

Can you check `Cc1nnc(CO)n1-c1ccc(Cl)cc1C(=O)c1ccccc1` next?
138 to 142 °C

* * *

Measured melting point, listed per entry for reference.

For orientation, consider the following solved cases.
{"molecule": "COc1ccc(CC(C)NC(C)=O)cc1OCc1ccccc1 (stereo not given)", "observed_value": "139 °C"}
{"molecule": "Cc1ccc(OCc2nc(N)c3nccnc3n2)cc1", "observed_value": "225 to 227 °C"}
{"molecule": "Cc1cc(-n2nc(C(F)(F)F)cc2-c2ccc(S(C)(=O)=O)cc2)ccc1Cl", "observed_value": "152 to 154 °C"}
{"molecule": "COc1c(C#N)c(OC)c(OC)c(OC)c1OC", "observed_value": "64 °C"}
{"molecule": "N#CC=Cc1ccc(Cl)c(Cl)c1", "observed_value": "98.2 °C"}
{"molecule": "Cc1c(C#N)sc2nc(-c3ccc(Cl)cc3)nc(N3CCN(C)CC3)c12", "observed_value": "209 to 210 °C"}

For `O=C(c1ccc(Cc2c(Cl)cc(NN=Cc3ccccc3)cc2Cl)cc1)c1cnc(Cl)c(Cl)c1` , what is its reported melting point?
173 to 175 °C

Then CC(=O)Nc1ccc(OCC(O)CN2CCC(NC(=O)c3ccccc3)CC2)cc1 (stereo not given) ?
226 to 228 °C

Repeat with O=[N+]([O-])c1cccnc1NCC(O)c1ccccc1 (stereo not given)
101 to 103 °C

Now the molecule `CC1CCN(c2cc3nc(C(C)(C)C)sc3cc2N=C=S)CC1`
54 to 58 °C

* * *

compounds and their reported melting point

Examples with answers:
{"molecule": "CCCCCCCNC(=O)N(C)c1cccc(-c2ccc(C=C(C)C(=O)O)cc2OCCCC)c1", "observed_value": "70 to 72 °C"}
{"molecule": "NC(Cc1ccc(F)cc1)=NO", "observed_value": "104 to 106 °C"}

Name the reported melting point value associated with the compound `O=C(NCc1c[nH]c(=S)n1[C@H]1CCc2c(F)cc(F)cc2C1)c1cccnc1`
218 to 221 °C

// same read-out, input: `CN(C)S(=O)(=O)c1cc(N)c(N)c([N+](=O)[O-])c1`
211 to 213 °C

Moving on to `COC(=O)CCCC(=O)c1ccc(OC)c(CCC(=O)OC)n1`
64 to 66 °C

Try the compound `Cc1ccc(S(=O)(=O)NC(C)(C)C)o1`
113 to 114 °C
